All values here come from patent US20240166765A1.

Study target: T1, human TF ECD-His6 (human, UniProt P13726 33-251)
T1 construct: made in Expi293 cells; the entry holds the ECD with the C-terminal TG-His6; also called TF-His; hTF
Experiment: BLI (ForteBio Octet)
pKd: −log10 of the molar value.

| Binder | pKd |
| --- | --- |
| 25G (antibody, human IgG1, kappa, V domains shown, human IgG1) VH: QVQLVQSGAEVKKPGASVKVSCKASGYTFRSYGISWVRQAPGQGLEWMGWVAPYNGNTNYAQKLQGRVTMTTDTSTSTAYMELRSLRSDDTAVYYCARDAGTYSPYGYGMDVWGQGTTVTVSS VL: DIQMTQSPSTLSASVGDRVTITCRASQSISSWLAWYQQKPGKAPKLLIYKASSLESGVPSRFSGSGSGTEFTLTISSLQPDDFATYYCQQFQSLPPFTFGGGTKVEIKR | 7.66 |
| 43B (antibody, human IgG1, V domains shown, human IgG1) VH: QVQLQESGPGLVKPSQTLSLTCTVSGGSISSGQYWSWIRQHPGKGLEWIGEIYYSGSTRYNPSLKSRVTISVDTSKNQFSLKLSSVTAADTAVYYCARDAPYYYGGGYYYYMDVWGKGTTVTVSS VL: EIVLTQSPGTLSLSPGERATLSCRASQSVSSSYLAWYQQKPGQAPRLLIYGASSRATGIPDRFSGSGSGTDFTLTISRLEPEDFAVYYCQQVGVVPYTFGGGTKVEIK | 8.62 |
| 25G9 (antibody, human IgG1, kappa, V domains shown, human IgG1) VH: QVQLVQSGAEVKKPGASVKVSCKASGYTFRSYGISWVRQAPGQGLEWMGWVAPYSGNTNYAQKLQGRVTMTTDTSTSTAYMELRSLRSDDTAVYYCARDAGTYSPYGYGMDVWGQGTTVTVSS VL: DIQMTQSPSTLSASVGDRVTITCQASQSIDSWLAWYQQKPGKAPKLLIYSASYLESGVPSRFSGSGSGTEFTLTISSLQPDDFATYYCQRFQSLPPFTFGGGTKVEIKR | 7.45 |
